# Study Target: hCA II (Homo sapiens)
Label condition met when Ki is strictly below 4 nM; at or above that, label condition not met.

QUERY: Consider NS(=O)(=O)c1ccc(N2N=C(c3ccccc3)CC2c2ccc(O)cc2)cc1 (centres unmarked) [Compound 8] . Does its Ki lie strictly below 4 nM?
RESULT: condition not met

QUERY: Consider NS(=O)(=O)c1ccc(N2N=C(c3ccc(F)cc3)CC2c2ccc(O)cc2)cc1 (centres unmarked) [Compound 11] . Does its Ki lie strictly below 4 nM?
RESULT: condition not met

QUERY: Consider NS(=O)(=O)c1ccc(N2N=C(c3cccs3)CC2c2ccc(O)cc2)cc1 (centres unmarked) [Compound 14] . Does its Ki lie strictly below 4 nM?
RESULT: condition met

QUERY: Consider COc1ccc(C2=NN(c3ccc(S(N)(=O)=O)cc3)C(c3ccc(O)cc3)C2)cc1 (centres unmarked) [Compound 10] . Does its Ki lie strictly below 4 nM?
RESULT: condition not met
